system-tested: Mtb chorismate synthase (Mtb-Cs, Rv2540c) (Mycobacterium tuberculosis, UniProt P9WPY1)
Sequence (P9WPY1 whole entry): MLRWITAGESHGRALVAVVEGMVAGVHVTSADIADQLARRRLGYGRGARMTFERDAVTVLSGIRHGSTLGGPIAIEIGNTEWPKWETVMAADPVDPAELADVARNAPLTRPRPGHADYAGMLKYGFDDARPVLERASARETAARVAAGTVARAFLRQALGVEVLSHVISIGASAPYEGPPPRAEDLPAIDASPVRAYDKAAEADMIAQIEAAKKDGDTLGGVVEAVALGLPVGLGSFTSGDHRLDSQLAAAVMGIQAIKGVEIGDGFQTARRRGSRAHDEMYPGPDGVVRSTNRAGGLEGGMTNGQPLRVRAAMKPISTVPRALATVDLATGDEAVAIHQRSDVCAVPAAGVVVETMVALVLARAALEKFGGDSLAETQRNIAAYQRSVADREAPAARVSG
protocol-text: Mtb chorismate synthase activity assay (coupled, Pi production with MESG/PNP)
condition: Pi production at A360, EPSP, FMN 0.04 mM, NADH 0.3 mM
measured-property: IC50 (µM)
One number for each entry, in µM.

compound: CN(C)c1ccc(C=C2Oc3c(Br)cccc3C2=O)cc1 [Aurone 9505]
IC50 (µM): 24.5
//
compound: CC(=O)N1C(=Cc2ccccc2Br)C(=O)c2ccccc21 [AA2A]
IC50 (µM): 24.1
//
compound: Cc1cc2c(cc1C)C(=O)C(=Cc1ccc(N(C)C)cc1)O2 [Aurone 9510]
IC50 (µM): 15.1
//
compound: CN(C)c1ccc(C=C2Oc3cc(Cl)ccc3C2=O)cc1 [Aurone 9501]
IC50 (µM): 5.36
//
compound: CN(C)c1ccc(C=C2Oc3cc(Br)ccc3C2=O)cc1 [Aurone 9504]
IC50 (µM): 17.1

Endpoint output: IC50 of O=C1C(=Cc2ccccc2)Nc2ccccc21 [AA8] . Value? 50.3

###

protocol-text: MTT cell viability cytotoxicity assay, Vero
Format: cell-based, primate
condition: monkey, vero cells; MTT, 2-days incubation; read-out: IC50 Vero
measured-property: CC50 at 48 h (mM)
Numbers only, in mM.

Endpoint output: CC50 at 48 h of CN(C)c1ccc(C=C2Oc3cc(Cl)ccc3C2=O)cc1 . Value? 1.11

###

Field: MIC. Provide a value for each of the compounds that follow.
Tested on: Mtb CDC1551
protocol-text: Resazurin microtiter assay (REMA) for MICs
Format: cell-based
condition: Mycobacterium tuberculosis, CDC1551, 168 h; REMA, 7 days incubation, lowest concentration preventing resazurin colour change; read-out: MIC
One number for each entry, in µM.

compound: Cc1cc2c(cc1C)C(=O)C(=Cc1ccc(N(C)C)cc1)O2 [Aurone 9510]
MIC / µM: 25
//
compound: CO[C@H]1/C=C/O[C@@]2(C)Oc3c(C)c(O)c4c(O)c(c(/C=N/N5CCN(C)CC5)c(O)c4c3C2=O)NC(=O)/C(C)=C\C=C\[C@H](C)[C@H](O)[C@@H](C)[C@@H](O)[C@@H](C)[C@H](OC(C)=O)[C@@H]1C [RIF, rifampicin, reference compound]
MIC / µM: 0.5
//
compound: CC(=O)N1C(=Cc2ccccc2Br)C(=O)c2ccccc21 [AA2A]
MIC / µM: 25
//
compound: O=C1C(=Cc2ccccc2)Nc2ccccc21 [AA8]
MIC / µM: 50

Endpoint output: MIC of CN(C)c1ccc(C=C2Oc3c(Br)cccc3C2=O)cc1 [Aurone 9505] . Value? 12.5

###

Field: SI (IC50/MIC) Vero. Provide a value for each of the compounds that follow.
System: Vero cells
protocol-text: MTT cell viability cytotoxicity assay, Vero
Assay type: cell-based, primate
condition: IC50 Vero / MIC Mtb; 2880 min

structure-smiles: CN(C)c1ccc(C=C2Oc3cc(Cl)ccc3C2=O)cc1
SI (IC50/MIC) Vero: 44.50
--
structure-smiles: CN(C)c1ccc(C=C2Oc3cc(Br)ccc3C2=O)cc1
SI (IC50/MIC) Vero: 87.98
--
structure-smiles: Cc1cc2c(cc1C)C(=O)C(=Cc1ccc(N(C)C)cc1)O2
SI (IC50/MIC) Vero: 35.69

Quick batch: SI (IC50/MIC) Vero for everything below.
1. CC(=O)N1C(=Cc2ccccc2Br)C(=O)c2ccccc21
2. CN(C)c1ccc(C=C2Oc3c(Br)cccc3C2=O)cc1
3. O=C1C(=Cc2ccccc2)Nc2ccccc21

[5.13, 38.34, 5.58]

###

Field: SI (IC50/MIC) HepG2. Provide a value for each of the compounds that follow.
Test system: HepG2 cells
protocol-text: MTT cell viability cytotoxicity assay, HepG2
Type: cell-based, human
condition: IC50 HepG2 / MIC Mtb; 2880 min
One number for each entry.

Quick batch: SI (IC50/MIC) HepG2 for everything below.
1. CN(C)c1ccc(C=C2Oc3c(Br)cccc3C2=O)cc1 [Aurone 9505]
2. CN(C)c1ccc(C=C2Oc3cc(Cl)ccc3C2=O)cc1 [Aurone 9501]

[2.34, 15.85]

###

System: HepG2 cells
protocol-text: MTT cell viability cytotoxicity assay, HepG2
Type: cell-based, human
condition: IC50 HepG2 / MIC Mtb; 2880 min
measured-property: SI (IC50/MIC) HepG2
Give bare numbers.

Consider the worked cases shown below.
structure-smiles: CN(C)c1ccc(C=C2Oc3cc(Br)ccc3C2=O)cc1
SI (IC50/MIC) HepG2: 126.40

structure-smiles: Cc1cc2c(cc1C)C(=O)C(=Cc1ccc(N(C)C)cc1)O2
SI (IC50/MIC) HepG2: 18.06

structure-smiles: CC(=O)N1C(=Cc2ccccc2Br)C(=O)c2ccccc21
SI (IC50/MIC) HepG2: 4.71

Endpoint output: SI (IC50/MIC) HepG2 of O=C1C(=Cc2ccccc2)Nc2ccccc21 . Value? 7.99
